Biological target: GABA-A receptor; alpha-2/beta-3/gamma-2 (Homo sapiens, UniProt P18507+P28472+P47869)
Sequence (P18507 whole entry): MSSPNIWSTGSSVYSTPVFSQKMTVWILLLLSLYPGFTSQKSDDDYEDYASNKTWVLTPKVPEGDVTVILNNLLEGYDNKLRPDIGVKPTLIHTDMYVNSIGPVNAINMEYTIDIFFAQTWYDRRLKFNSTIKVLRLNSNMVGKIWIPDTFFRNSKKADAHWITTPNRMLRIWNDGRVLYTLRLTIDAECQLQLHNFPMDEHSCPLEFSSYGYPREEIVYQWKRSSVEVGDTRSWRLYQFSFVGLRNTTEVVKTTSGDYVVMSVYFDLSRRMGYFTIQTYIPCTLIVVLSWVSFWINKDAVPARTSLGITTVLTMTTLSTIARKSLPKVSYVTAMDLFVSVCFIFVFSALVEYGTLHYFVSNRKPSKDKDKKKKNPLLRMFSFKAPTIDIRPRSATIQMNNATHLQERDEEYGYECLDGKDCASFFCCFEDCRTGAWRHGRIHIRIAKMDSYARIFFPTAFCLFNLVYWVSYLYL
Sequence (P28472 whole entry): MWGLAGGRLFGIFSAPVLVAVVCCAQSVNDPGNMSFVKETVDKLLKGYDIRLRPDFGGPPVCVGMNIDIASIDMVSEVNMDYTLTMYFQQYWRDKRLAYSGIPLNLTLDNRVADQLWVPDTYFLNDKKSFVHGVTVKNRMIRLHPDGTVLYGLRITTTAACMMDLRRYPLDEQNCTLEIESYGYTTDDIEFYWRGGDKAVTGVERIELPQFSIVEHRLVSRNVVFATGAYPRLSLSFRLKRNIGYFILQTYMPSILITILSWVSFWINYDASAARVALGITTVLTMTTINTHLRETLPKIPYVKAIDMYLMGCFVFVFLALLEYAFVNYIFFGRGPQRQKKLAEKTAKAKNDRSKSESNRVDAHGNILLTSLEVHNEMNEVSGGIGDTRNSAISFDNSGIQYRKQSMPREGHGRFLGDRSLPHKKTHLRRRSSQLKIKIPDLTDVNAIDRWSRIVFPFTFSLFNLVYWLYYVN
Sequence (P47869 whole entry): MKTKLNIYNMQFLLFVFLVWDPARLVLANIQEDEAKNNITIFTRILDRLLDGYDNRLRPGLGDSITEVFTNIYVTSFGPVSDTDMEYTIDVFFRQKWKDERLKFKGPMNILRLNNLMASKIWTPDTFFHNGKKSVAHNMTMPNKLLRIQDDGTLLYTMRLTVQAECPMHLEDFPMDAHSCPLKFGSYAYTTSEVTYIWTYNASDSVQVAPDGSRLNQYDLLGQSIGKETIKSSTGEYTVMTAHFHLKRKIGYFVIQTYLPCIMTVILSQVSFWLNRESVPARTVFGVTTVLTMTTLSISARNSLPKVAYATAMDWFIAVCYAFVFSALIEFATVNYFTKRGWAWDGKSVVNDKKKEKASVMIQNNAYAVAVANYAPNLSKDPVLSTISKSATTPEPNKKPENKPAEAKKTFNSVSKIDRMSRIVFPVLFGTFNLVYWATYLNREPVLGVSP
Experiment: Displacement of [3H]flumazenil from GABAA alpha-2-beta-3-gamma-2 receptor
pKi: −log10 of the molar value.
Please mark Fulfilled if the recorded pKi is equal to or greater than 6, and Not fulfilled if it falls below.

[
  {
    "structure_string": "Cc1ncn2c1Cn1ncnc1-c1cc(Br)ccc1-2",
    "group": "Fulfilled"
  }
]

Q) Entry Cc1cc(Cc2nc3n(n2)Cc2c(C)ncn2-c2ccc(Br)cc2-3)on1 : is its pKi no less than 6?
A) Fulfilled

Q) Entry Cc1ncn2c1Cn1nc(CC3CC3)nc1-c1cc(Br)ccc1-2 : is its pKi no less than 6?
A) Fulfilled

Q) Entry Cc1noc(Cc2nc3n(n2)Cc2c(C)ncn2-c2ccc(Br)cc2-3)n1 : is its pKi no less than 6?
A) Fulfilled

Q) Entry Cc1nc2n(n1)Cc1c(C)ncn1-c1ccc(Br)cc1-2 : is its pKi no less than 6?
A) Not fulfilled

----------
Please provide measured pKi for the entries that follow.
target: GABA-A receptor; alpha-1/beta-3/gamma-2 (Homo sapiens, UniProt P14867+P18507+P28472); test: Displacement of [3H]flumazenil from GABAA alpha-1-beta-3-gamma-2 receptor
Sequence (P14867 whole entry, one chain of several): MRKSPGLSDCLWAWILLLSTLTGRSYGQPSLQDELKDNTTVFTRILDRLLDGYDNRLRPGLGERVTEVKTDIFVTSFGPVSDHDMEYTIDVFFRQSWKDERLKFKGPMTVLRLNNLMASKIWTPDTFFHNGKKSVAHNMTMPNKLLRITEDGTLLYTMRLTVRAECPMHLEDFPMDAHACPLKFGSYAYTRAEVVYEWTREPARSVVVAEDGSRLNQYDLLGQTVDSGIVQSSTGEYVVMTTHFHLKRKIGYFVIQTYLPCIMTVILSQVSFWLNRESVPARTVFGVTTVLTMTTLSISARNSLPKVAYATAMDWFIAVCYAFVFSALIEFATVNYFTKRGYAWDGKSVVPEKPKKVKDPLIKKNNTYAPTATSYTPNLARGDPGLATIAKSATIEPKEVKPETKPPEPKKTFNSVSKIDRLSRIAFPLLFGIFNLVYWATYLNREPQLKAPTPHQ
Give bare numbers, as −log10 of the molar value.

[
  {
    "structure_string": "Cc1ncn2c1Cn1nc(CN3CCCC3=O)nc1-c1cc(Br)ccc1-2",
    "pKi": 6.20
  }
]

For each of the items listed, what is its pKi?
1. Cc1cc(Cc2nc3n(n2)Cc2c(C)ncn2-c2ccc(Br)cc2-3)on1
2. Cc1ncn2c1Cn1nc(C(C)(C)C)nc1-c1cc(Br)ccc1-2
3. Cc1cc(-c2nnc3c4ccccc4c(OCc4ccccn4)nn23)no1
4. Cc1noc(Cc2nc3n(n2)Cc2c(C)ncn2-c2ccc(Br)cc2-3)n1
5. Cc1ncn2c1Cn1ncnc1-c1cc(Br)ccc1-2

A)
6.73
5.50
8.82
6.33
6.87

For each of the items listed, what is its pKi?
1. COCc1nc2n(n1)Cc1c(C)ncn1-c1ccc(Br)cc1-2
2. Cc1ncn2c1Cn1nc(CC3CC3)nc1-c1cc(Br)ccc1-2
3. Cc1nc2n(n1)Cc1c(C)ncn1-c1ccc(Br)cc1-2

A)
6.21
6.27
5.85

----------
assay: Ratio of drug level in brain to plasma in rat; format: ADME, organism-based; settings: brain and plasma
endpoint: Kp
One number for each entry.

The examples below pair each entry with its known result.
[
  {
    "structure_string": "Cc1ncn2c1Cn1nc(CN3CCCC3=O)nc1-c1cc(Br)ccc1-2",
    "readout_value": 0.09
  },
  {
    "structure_string": "Cc1cc(Cc2nc3n(n2)Cc2c(C)ncn2-c2ccc(Br)cc2-3)on1",
    "readout_value": 0.2
  }
]

Kp in this record for Cc1cc(Cc2nc3n(n2)Cc2c(C)ncn2-c2ccc(Cl)cc2-3)on1 : 1

----------
biological target: GABA-A receptor; alpha-5/beta-3/gamma-2 (Homo sapiens, UniProt P18507+P28472+P31644); experiment: Displacement of [3H]flumazenil from GABAA alpha-5-beta-3-gamma-2 receptor
Please provide measured log10 Ki for the entries that follow.
Each number you see is log10 of Ki, and the unit inside the log is nM.

The examples below pair each entry with its known result.
[
  {
    "structure_string": "Cc1ncn2c1Cn1ncnc1-c1cc(Br)ccc1-2",
    "readout_value": 0.78
  },
  {
    "structure_string": "Cc1ncn2c1Cn1nc(CC3CC3)nc1-c1cc(Br)ccc1-2",
    "readout_value": 0.70
  },
  {
    "structure_string": "Cc1cc(-c2nnc3c4ccccc4c(OCc4ccccn4)nn23)no1",
    "readout_value": 0.18
  },
  {
    "structure_string": "Cc1noc(Cc2nc3n(n2)Cc2c(C)ncn2-c2ccc(Br)cc2-3)n1",
    "readout_value": -0.05
  },
  {
    "structure_string": "Cc1cc(Cc2nc3n(n2)Cc2c(C)ncn2-c2ccc(OC(F)(F)F)cc2-3)on1",
    "readout_value": 1.04
  },
  {
    "structure_string": "Cc1cc(Cc2nc3n(n2)Cc2c(C)ncn2-c2ccc(O)cc2-3)on1",
    "readout_value": 0.08
  },
  {
    "structure_string": "Cc1cc(Cc2nc3n(n2)Cc2c(C)ncn2-c2ccc(Br)cc2-3)on1",
    "readout_value": -0.22
  },
  {
    "structure_string": "Cc1cc(Cc2nc3n(n2)Cc2c(C)ncn2-c2ccccc2-3)on1",
    "readout_value": 0.20
  }
]

For each of the items listed, what is its log10 Ki?
1. COCc1nc2n(n1)Cc1c(C)ncn1-c1ccc(Br)cc1-2
2. Cc1cc(Cc2nc3n(n2)Cc2c(C)ncn2-c2ccc(Cl)cc2-3)on1
3. Cc1ncn2c1Cn1nc(C(C)(C)C)nc1-c1cc(Br)ccc1-2
4. Cc1ccc2c(c1)-c1nc(Cc3cc(C)no3)nn1Cc1c(C)ncn1-2
5. Cc1ncn2c1Cn1nc(CN3CCCC3=O)nc1-c1cc(Br)ccc1-2
6. Cc1nc2n(n1)Cc1c(C)ncn1-c1ccc(Br)cc1-2

A)
1: 1.11; 2: -0.22; 3: 2.16; 4: -0.10; 5: 0.85; 6: 1.30

log10 Ki in this record for COc1ccc2c(c1)-c1nc(Cc3cc(C)no3)nn1Cc1c(C)ncn1-2 : 0.34

----------
assay: Selectivity ratio of Ki for GABAA alpha-2-beta-3-gamma-2 receptor to Ki for GABAA alpha-5-beta-3-gamma-2 receptor
Please provide measured Ratio Ki for the entries that follow.
Answers are plain numbers.

The examples below pair each entry with its known result.
[
  {
    "structure_string": "Cc1cc(Cc2nc3n(n2)Cc2c(C)ncn2-c2ccc(OC(F)(F)F)cc2-3)on1",
    "endpoint": "Ratio Ki",
    "readout_value": 83
  },
  {
    "structure_string": "Cc1cc(Cc2nc3n(n2)Cc2c(C)ncn2-c2ccccc2-3)on1",
    "endpoint": "Ratio Ki",
    "readout_value": 20
  },
  {
    "structure_string": "COc1ccc2c(c1)-c1nc(Cc3cc(C)no3)nn1Cc1c(C)ncn1-2",
    "endpoint": "Ratio Ki",
    "readout_value": 193
  },
  {
    "structure_string": "Cc1ncn2c1Cn1nc(CC3CC3)nc1-c1cc(Br)ccc1-2",
    "endpoint": "Ratio Ki",
    "readout_value": 2
  },
  {
    "structure_string": "Cc1cc(Cc2nc3n(n2)Cc2c(C)ncn2-c2ccc(Br)cc2-3)on1",
    "endpoint": "Ratio Ki",
    "readout_value": 174
  }
]

For each of the items listed, what is its Ratio Ki?
1. Cc1cc(Cc2nc3n(n2)Cc2c(C)ncn2-c2ccc(Cl)cc2-3)on1
2. Cc1ccc2c(c1)-c1nc(Cc3cc(C)no3)nn1Cc1c(C)ncn1-2

A)
1: 251; 2: 332
